# Tested on: Enterococcus faecium
# protocol-text: Antimicrobial activity against vancomycin-resistant Enterococcus faecium assessed as inhibition of visible bacterial growth incubated for 18 hrs by CLSI based analysis
# Assay type: functional
Would you mind telling me the reported MIC of each entry?
Give bare numbers, in µg/mL.

CC(C)C[C@H]1NC(=O)[C@H](Cc2c(C(c3ccccc3)c3ccccc3)[nH]c3ccccc23)NC(=O)[C@@H](CCCCN)NC(=O)[C@@H]2CSC(N2)[C@H](C(C)C)NC(=O)[C@@H](C(C)C)NC(=O)[C@H](C(C)C)NC1=O | 50

Next molecule, MIC to be filled in.
Which MIC value belongs to `CC(C)C[C@H]1NC(=O)[C@H](Cc2c(C(c3ccccc3)(c3ccccc3)c3ccccc3)[nH]c3ccccc23)NC(=O)[C@@H](C(C)C)NC(=O)[C@@H]2CSC(N2)[C@H](C(C)C)NC(=O)[C@@H](CCCCN)NC(=O)[C@H](C(C)C)NC1=O` ?
12.5

----------
# protocol-text: Hemolytic activity against mouse Red blood cell incubated for 1 hr
# Type: toxicity, cell-based
# stated-conditions: erythrocyte
measured-endpoint: HC5 (µg/mL)
Numbers only, in µg/mL.

Which HC5 value belongs to `CC(C)C[C@H]1NC(=O)[C@H](Cc2c(C(c3ccccc3)(c3ccccc3)c3ccccc3)[nH]c3ccccc23)NC(=O)[C@@H](C(C)C)NC(=O)[C@@H]2CSC(N2)[C@H](C(C)C)NC(=O)[C@@H](CCCCN)NC(=O)[C@H](C(C)C)NC1=O` ?
44.04

----------
# protocol-text: Hemolytic activity against mouse Red blood cell incubated for 1 hr
# Format: toxicity, cell-based
# stated-conditions: erythrocyte
measured-endpoint: HC5 (µg/mL)
Numbers only, in µg/mL.

Some compounds with recorded HC5:
CC(C)C[C@H]1NC(=O)[C@H](Cc2c(C(c3ccccc3)(c3ccccc3)c3ccccc3)[nH]c3ccccc23)NC(=O)[C@@H](CCCCN)NC(=O)[C@@H]2CSC(N2)[C@H](C(C)C)NC(=O)[C@@H](C(C)C)NC(=O)[C@H](C(C)C)NC1=O | 46.47
CC(C)C[C@H]1NC(=O)[C@H](Cc2c(C(c3ccccc3)(c3ccccc3)c3ccccc3)[nH]c3ccccc23)NC(=O)[C@@H](C(C)C)NC(=O)[C@@H]2CSC(N2)[C@H](C(C)C)NC(=O)[C@@H](C(C)C)NC(=O)[C@H](CCCCN)NC1=O | 68.73
CC(C)C[C@H]1NC(=O)[C@H](Cc2c(C(c3ccccc3)c3ccccc3)[nH]c3ccccc23)NC(=O)[C@@H](C(C)C)NC(=O)[C@@H]2CSC(N2)[C@H](C(C)C)NC(=O)[C@@H](CCCCN)NC(=O)[C@H](C(C)C)NC1=O | 43.53
CC(C)[C@@H]1NC(=O)[C@@H](C(C)C)NC(=O)[C@H](C(C)C)NC(=O)[C@@H](CCCCN)NC(=O)[C@H](Cc2c(C(c3ccccc3)c3ccccc3)[nH]c3ccccc23)NC(=O)[C@@H](C(C)C)NC(=O)[C@@H]2CSC1N2 | 74.17

Next compound, HC5 to be filled in.
Which HC5 value belongs to `CC(C)C[C@H]1NC(=O)[C@H](Cc2c(C(c3ccccc3)c3ccccc3)[nH]c3ccccc23)NC(=O)[C@@H](C(C)C)NC(=O)[C@@H]2CSC(N2)[C@H](C(C)C)NC(=O)[C@@H](C(C)C)NC(=O)[C@H](CCCCN)NC1=O` ?
64.74

----------
# Test system: Staphylococcus aureus
# protocol-text: Antimicrobial activity against methicillin-resistant Staphylococcus aureus ATCC 43300 assessed as inhibition of visible bacterial growth incubated for 18 hrs by CLSI based analysis
# Type: functional
Would you mind telling me the reported log10 of MIC of each entry?
In plain terms, each number is the log10 of measured MIC in µg/mL.

Some molecules with recorded log10 of MIC:
CC(C)C[C@H]1NC(=O)[C@H](Cc2c(C(c3ccccc3)(c3ccccc3)c3ccccc3)[nH]c3ccccc23)NC(=O)[C@@H](C(C)C)NC(=O)[C@@H]2CSC(N2)[C@H](C(C)C)NC(=O)[C@@H](C(C)C)NC(=O)[C@H](CCCCN)NC1=O | 0.80
CC(=O)NC[C@H]1CN(c2ccc(N3CCOCC3)c(F)c2)C(=O)O1 | 0.19
CN[C@H](CC(C)C)C(=O)N[C@H]1C(=O)N[C@@H](CC(N)=O)C(=O)N[C@H]2C(=O)N[C@H]3C(=O)N[C@H](C(=O)N[C@H](C(=O)O)c4cc(O)cc(O)c4-c4cc3ccc4O)[C@H](O)c3ccc(c(Cl)c3)Oc3cc2cc(c3O[C@@H]2O[C@H](CO)[C@@H](O)[C@H](O)[C@H]2O[C@H]2C[C@](C)(N)[C@H](O)[C@H](C)O2)Oc2ccc(cc2Cl)[C@H]1O | -0.11

Look up log10 of MIC for the entries below, preserving their order.
1. CC(C)C[C@H]1NC(=O)[C@H](Cc2c(C(c3ccccc3)c3ccccc3)[nH]c3ccccc23)NC(=O)[C@@H](CCCCN)NC(=O)[C@@H]2CSC(N2)[C@H](C(C)C)NC(=O)[C@@H](C(C)C)NC(=O)[C@H](C(C)C)NC1=O
2. CC(C)C[C@H]1NC(=O)[C@H](Cc2c(C(c3ccccc3)c3ccccc3)[nH]c3ccccc23)NC(=O)[C@@H](C(C)C)NC(=O)[C@@H]2CSC(N2)[C@H](C(C)C)NC(=O)[C@@H](CCCCN)NC(=O)[C@H](C(C)C)NC1=O
3. CC(C)C[C@H]1NC(=O)[C@H](Cc2c(C(c3ccccc3)c3ccccc3)[nH]c3ccccc23)NC(=O)[C@@H](C(C)C)NC(=O)[C@@H]2CSC(N2)[C@H](C(C)C)NC(=O)[C@@H](C(C)C)NC(=O)[C@H](CCCCN)NC1=O

1: 1.40; 2: 1.10; 3: 1.40

----------
# Tested on: Staphylococcus aureus
# protocol-text: Antimicrobial activity against methicillin-resistant Staphylococcus aureus clinical isolate 3 assessed as inhibition of visible bacterial growth incubated for 18 hrs by CLSI based analysis
# Assay type: functional
measured-endpoint: MIC (µg/mL)
Give bare numbers, in µg/mL.

Some molecules with recorded MIC:
CN[C@H](CC(C)C)C(=O)N[C@H]1C(=O)N[C@@H](CC(N)=O)C(=O)N[C@H]2C(=O)N[C@H]3C(=O)N[C@H](C(=O)N[C@H](C(=O)O)c4cc(O)cc(O)c4-c4cc3ccc4O)[C@H](O)c3ccc(c(Cl)c3)Oc3cc2cc(c3O[C@@H]2O[C@H](CO)[C@@H](O)[C@H](O)[C@H]2O[C@H]2C[C@](C)(N)[C@H](O)[C@H](C)O2)Oc2ccc(cc2Cl)[C@H]1O | 0.78
CC(C)C[C@H]1NC(=O)[C@H](Cc2c(C(c3ccccc3)c3ccccc3)[nH]c3ccccc23)NC(=O)[C@@H](C(C)C)NC(=O)[C@@H]2CSC(N2)[C@H](C(C)C)NC(=O)[C@@H](C(C)C)NC(=O)[C@H](CCCCN)NC1=O | 25
CC(C)C[C@H]1NC(=O)[C@H](Cc2c(C(c3ccccc3)(c3ccccc3)c3ccccc3)[nH]c3ccccc23)NC(=O)[C@@H](C(C)C)NC(=O)[C@@H]2CSC(N2)[C@H](C(C)C)NC(=O)[C@@H](C(C)C)NC(=O)[C@H](CCCCN)NC1=O | 6.25
C#CC[C@H]1NC(=O)[C@@H]2CSC(N2)[C@H](C(C)C)NC(=O)[C@@H](C(C)C)NC(=O)[C@H](C(C)C)NC(=O)[C@@H](CCCCN)NC(=O)[C@H](Cc2c(C(c3ccccc3)(c3ccccc3)c3ccccc3)[nH]c3ccccc23)NC1=O | 12.5

Look up MIC for the entries below, preserving their order.
1. CC(C)C[C@H]1NC(=O)[C@H](Cc2c(C(c3ccccc3)(c3ccccc3)c3ccccc3)[nH]c3ccccc23)NC(=O)[C@@H](CCCCN)NC(=O)[C@@H]2CSC(N2)[C@H](C(C)C)NC(=O)[C@@H](C(C)C)NC(=O)[C@H](C(C)C)NC1=O
2. CC(C)C[C@H]1NC(=O)[C@H](Cc2c(C(c3ccccc3)c3ccccc3)[nH]c3ccccc23)NC(=O)[C@@H](CCCCN)NC(=O)[C@@H]2CSC(N2)[C@H](C(C)C)NC(=O)[C@@H](C(C)C)NC(=O)[C@H](C(C)C)NC1=O
3. CC(=O)NC[C@H]1CN(c2ccc(N3CCOCC3)c(F)c2)C(=O)O1

[25, 25, 1.56]

----------
Would you mind telling me the reported MIC of each entry?
# System: Staphylococcus aureus
# protocol-text: Antimicrobial activity against methicillin-resistant Staphylococcus aureus clinical isolate 3 assessed as inhibition of visible bacterial growth incubated for 18 hrs by CLSI based analysis
# Type: functional

CC(C)C[C@H]1NC(=O)[C@H](Cc2c(C(c3ccccc3)(c3ccccc3)c3ccccc3)[nH]c3ccccc23)NC(=O)[C@@H](C(C)C)NC(=O)[C@@H]2CSC(N2)[C@H](C(C)C)NC(=O)[C@@H](C(C)C)NC(=O)[C@H](C(C)C)NC1=O | > 50 µg/mL
CC(C)C[C@H]1NC(=O)[C@H](Cc2c(C(c3ccccc3)(c3ccccc3)c3ccccc3)[nH]c3ccccc23)NC(=O)[C@@H](C(C)C)NC(=O)[C@@H]2CSC(N2)[C@H](C(C)C)NC(=O)[C@@H](CCCCN)NC(=O)[C@H](C(C)C)NC1=O | 6.25 µg/mL
CC(C)C[C@H]1NC(=O)[C@H](Cc2c(C(c3ccccc3)c3ccccc3)[nH]c3ccccc23)NC(=O)[C@@H](C(C)C)NC(=O)[C@@H]2CSC(N2)[C@H](C(C)C)NC(=O)[C@@H](CCCCN)NC(=O)[C@H](C(C)C)NC1=O | 12.5 µg/mL
CC(C)[C@@H]1NC(=O)[C@@H](C(C)C)NC(=O)[C@H](C(C)C)NC(=O)[C@@H](CCCCN)NC(=O)[C@H](Cc2c(C(c3ccccc3)c3ccccc3)[nH]c3ccccc23)NC(=O)[C@@H](C(C)C)NC(=O)[C@@H]2CSC1N2 | 12.5 µg/mL

Look up MIC for the entries below, preserving their order.
1. CC(C)C[C@H]1NC(=O)[C@H](Cc2c(C(c3ccccc3)c3ccccc3)[nH]c3ccccc23)NC(=O)[C@@H](C(C)C)NC(=O)[C@@H]2CSC(N2)[C@H](C(C)C)NC(=O)[C@@H](C(C)C)NC(=O)[C@H](C(C)C)NC1=O
2. CC(C)[C@@H]1NC(=O)[C@@H](C(C)C)NC(=O)[C@H](C(C)C)NC(=O)[C@@H](CCCCN)NC(=O)[C@H](Cc2c(C(c3ccccc3)(c3ccccc3)c3ccccc3)[nH]c3ccccc23)NC(=O)[C@@H](C(C)C)NC(=O)[C@@H]2CSC1N2

1. > 50 µg/mL
2. 12.5 µg/mL
